- Experiment Description: Microsomal stability (rat)
- Assay type: in vitro ADME
- Condition: rat microsomes
Readout Kind: Microsomal Stability (rat) T1/2

Consider the reported Microsomal Stability (rat) T1/2 for these compounds:
Compound | Readout Kind | Observed Value
COc1cc(C(=O)NC2CC2)ccc1-n1c(=O)ccc2cnc3ccc(-c4ccc(CN(C)C)cc4)cc3c21 [Compound 190] | Microsomal Stability (rat) T1/2 | >30 min
CS(=O)(=O)c1ccc(-n2c(=O)ccc3cnc4ccc(-c5ccc(Cl)c(C(=O)N6CCOCC6)c5)cc4c32)cc1 [Compound 52] | Microsomal Stability (rat) T1/2 | <1.0 min

Documented Microsomal Stability (rat) T1/2 of NCCc1ccc(-c2ccc3ncc4ccc(=O)n(-c5ccc(C(=O)NC6CC6)cc5)c4c3c2)cc1 [Compound 240] : >30 min

Documented Microsomal Stability (rat) T1/2 of CN(C)Cc1ccc(-c2ccc3ncc4ccc(=O)n(-c5ccc(S(C)(=O)=O)c(N6CCOCC6)c5)c4c3c2)cc1 [Compound 62] : >30.00 min

Documented Microsomal Stability (rat) T1/2 of CCN1Cc2cc(-n3c(=O)ccc4cnc5ccc(-c6ccc(CN(C)C)cc6)cc5c43)ccc2C1=O [Compound 348] : >30.0 min

Documented Microsomal Stability (rat) T1/2 of Cc1ccc(C#N)cc1-n1c(=O)n(C)c2cnc3ccc(-c4ccc(Cl)cc4)cc3c21 [Compound 400] : >30.0 min

====

In this section we review reported PAMPA Permeability values for a set of molecules.
- Experiment Description: PAMPA permeability
- Assay type: in vitro ADME

Consider the reported PAMPA Permeability for these molecules:
Smiles Text | Observed Value
O=C(NC1CC1)c1ccc(-n2c(=O)ccc3cnc4ccc(-c5ccc(Cl)c(O)c5)cc4c32)cc1 | < 1 ×10⁻⁶ cm/s
Cn1c(=O)n(-c2cccc(C#N)c2)c2c3cc(-c4ccc(Cl)c(O)c4)ccc3ncc21 | < 1 ×10⁻⁶ cm/s

// below: PAMPA Permeability requested for another molecule
Documented PAMPA Permeability of O=C(NC1CCCCC1)c1ccc(-n2c(=O)ccc3cnc4ccc(-c5ccc(Cl)cc5)cc4c32)cc1 : < 1 ×10⁻⁶ cm/s

====

- Experiment Description: Microsomal stability (rat)
- Format: in vitro ADME
- Condition: rat microsomes
In this section we review reported Microsomal Stability (rat) T1/2 values for a set of compounds.

Consider the reported Microsomal Stability (rat) T1/2 for these compounds:
Smiles Text | Readout Kind | Observed Value
O=C(NC1CNC1)c1ccc(-n2c(=O)ccc3cnc4ccc(-c5ccc(Cl)cc5)cc4c32)cc1 | Microsomal Stability (rat) T1/2 | >30 min
CN(C)CCc1ccc(-c2ccc3ncc4ccc(=O)n(-c5ccc6c(c5)CNC6=O)c4c3c2)cc1 | Microsomal Stability (rat) T1/2 | >30 min
O=C(c1ccc(-n2c(=O)ccc3cnc4ccc(-c5ccc(Cl)cc5)cc4c32)cc1)N(C1CCCCC1)C1CC1 | Microsomal Stability (rat) T1/2 | 1.4 min
O=C(c1ccc(-n2c(=O)ccc3cnc4ccc(-c5ccc(CN6CCCC6)cc5)cc4c32)cc1)N1CCOCC1 | Microsomal Stability (rat) T1/2 | >30 min
Cn1c(=O)n(-c2cccc(C#N)c2)c2c3cc(-c4ccc(N)cc4)ccc3ncc21 | Microsomal Stability (rat) T1/2 | >30.0 min

// below: Microsomal Stability (rat) T1/2 requested for another compound
Documented Microsomal Stability (rat) T1/2 of CS(=O)(=O)c1ccc(-n2c(=O)ccc3cnc4ccc(-c5ccc(Cl)c(N)c5)cc4c32)cc1C(F)(F)F : 8.9 min
